System: LOLSS: ryegrass including, Italian ryegrass (Lolium multiflorum), rigid ryegrass (Lolium rigidum), annual ryegrass (Lolium multiflorum subsp. Gaudini)
Test: Post-emergent Test III, herbicidal activity in wheat and barley
Type: in vivo
Settings: Table 9; dose for 50 percent growth reduction, probit analysis; 21 d
List of GR50 LOLSS values.
Express the result in g ai/ha but write the number alone.

Sample answers from the record:
QUERY: Data request, read-out GR50 LOLSS, for C=Cc1c(C(=O)O)nc(-c2ccc(Br)cc2)c(F)c1N [Compound 117]
RESULT: 41

QUERY: Data request, read-out GR50 LOLSS, for COC(=O)c1nc(-c2cc(F)c(I)cc2F)c(F)c(N)c1Cl [Compound 55]
RESULT: 21

QUERY: Data request, read-out GR50 LOLSS, for COC(=O)c1nc(-c2ccc(Br)cc2)c(Cl)c(N)c1Cl [Compound 47]
RESULT: 80

Kindly review the next compound as well.
QUERY: Data request, read-out GR50 LOLSS, for Nc1c(Cl)c(C(=O)O)nc(-c2ccc(I)cc2)c1Cl [Compound 173]
RESULT: 119

====

System: MATSS: scented mayweed (Matricaria chamomilla), pineappleweed (Matricaria matricarioides)
Assay: Post-emergent Test III, herbicidal activity in wheat and barley
Type: in vivo
Conditions: probit analysis; dose for 80 percent growth reduction; 21 days after application
List of GR80 MATSS values.
Express the result in g ai/ha but write the number alone.

Sample answers from the record:
QUERY: Kindly state the measured GR80 MATSS obtained for Nc1c(F)c(-c2cc(F)c(I)cc2F)nc(C(=O)O)c1Cl [Compound 69] with MATSS: scented mayweed (Matricaria chamomilla), pineappleweed (Matricaria matricarioides).
RESULT: 29

QUERY: Kindly state the measured GR80 MATSS obtained for COc1c(N)nc(-c2ccc(I)c(F)c2F)nc1C(=O)O [Compound 89] with MATSS: scented mayweed (Matricaria chamomilla), pineappleweed (Matricaria matricarioides).
RESULT: 36

Kindly review the next compound as well.
QUERY: Kindly state the measured GR80 MATSS obtained for COC(=O)c1nc(-c2ccc(I)c(F)c2F)cc(N)c1Cl [Compound 129] with MATSS: scented mayweed (Matricaria chamomilla), pineappleweed (Matricaria matricarioides).
RESULT: 131

====

System: SETVI: green foxtail (Setaria viridis)
Assay: Post-emergent Test III, herbicidal activity in wheat and barley
Format: in vivo
Details: Setaria viridis, post-emergence, 504 h; 35 g ai/ha; read-out: Visual Growth Reduction (%) 21 Days After Application SETVI
List of pest or weed control at 35 g/ha values.

QUERY: Data request, read-out pest or weed control at 35 g/ha, for COC(=O)c1nc(-c2ccc(Cl)c(F)c2)c(F)c(N)c1Cl
RESULT: 60 to 74%

QUERY: Data request, read-out pest or weed control at 35 g/ha, for Nc1cc(-c2ccc(Br)c(F)c2F)nc(C(=O)O)c1Cl
RESULT: 60 to 74%

QUERY: Data request, read-out pest or weed control at 35 g/ha, for Nc1c(F)c(-c2ccc(I)cc2)nc(C(=O)O)c1Cl
RESULT: 60 to 74%

QUERY: Data request, read-out pest or weed control at 35 g/ha, for COC(=O)c1nc(-c2ccc(I)cc2)c(F)c(N)c1Cl
RESULT: 0 to 29%

Kindly review the next molecule as well.
QUERY: Data request, read-out pest or weed control at 35 g/ha, for COC(=O)c1nc(-c2ccc(C#N)cc2)c(F)c(N)c1Cl
RESULT: 0 to 29%

====

System: Key Grass and Sedge Weeds as well as Grass Crops
Assay: Post-emergent Test II herbicidal activity (Table 6)
Format: in vivo
Details: post-emergence, 336 h, DIGSA: crabgrass (Digitaria sanguinalis), application rate 140 g ai/ha, read-out: Visual Growth Reduction (%) 14 Days After Application, DIGSA
experimental endpoint: pest or weed control at 140 g/ha

QUERY: Data request, read-out pest or weed control at 140 g/ha, for Nc1c(Cl)c(C(=O)O)nc(-c2ccc(Br)cc2)c1Cl
RESULT: 60 to 74%

QUERY: Data request, read-out pest or weed control at 140 g/ha, for C=Cc1c(N)nc(-c2ccc(C(F)(F)F)c(F)c2)nc1C(=O)OC
RESULT: 0 to 29%

QUERY: Data request, read-out pest or weed control at 140 g/ha, for COC(=O)c1nc(-c2ccc(Br)c(F)c2)nc(N)c1OC
RESULT: 60 to 74%

QUERY: Data request, read-out pest or weed control at 140 g/ha, for COC(=O)c1nc(-c2ccc(OC(F)F)cc2)c(C)c(N)c1Cl
RESULT: 0 to 29%

QUERY: Data request, read-out pest or weed control at 140 g/ha, for COC(=O)c1nc(-c2cc(F)c(C(F)(F)F)cc2F)cc(N)c1Cl
RESULT: 95 to 100%

Further cases:
QUERY: Data request, read-out pest or weed control at 140 g/ha, for C=Cc1c(C(=O)O)nc(-c2ccc(C(F)(F)F)c(F)c2F)c(F)c1N
RESULT: 0 to 29%

QUERY: Data request, read-out pest or weed control at 140 g/ha, for COC(=O)c1nc(-c2cc(F)c(I)cc2F)nc(N)c1OC
RESULT: 60 to 74%

====

Test system: SASKR: Russian thistle (Salsola iberica)
Test: Post-emergent Test III, herbicidal activity in wheat and barley
Type: in vivo
Details: Salsola tragus, post-emergence, 504 h; Table 8; 70 g ai/ha; post-emergent; 21 d; read-out: Visual Growth Reduction (%) 21 Days After Application SASKR
List of pest or weed control at 70 g/ha values.

Sample answers from the record:
QUERY: Data request, read-out pest or weed control at 70 g/ha, for COc1c(N)nc(-c2ccc(I)c(F)c2)nc1C(=O)O
RESULT: 60 to 74%

QUERY: Data request, read-out pest or weed control at 70 g/ha, for COC(=O)c1nc(-c2ccc(I)c(F)c2)c(C)c(N)c1Cl
RESULT: 85 to 94%

QUERY: Data request, read-out pest or weed control at 70 g/ha, for Nc1cc(-c2ccc(I)cc2F)nc(C(=O)O)c1Cl
RESULT: 85 to 94%

Kindly review the next compound as well.
QUERY: Data request, read-out pest or weed control at 70 g/ha, for Nc1cc(-c2cc(F)c(Br)cc2F)nc(C(=O)O)c1Cl
RESULT: 85 to 94%

====

Test system: Key Grass and Sedge Weeds as well as Grass Crops
Assay: Post-emergent Test II herbicidal activity (Table 6)
Assay type: in vivo
Settings: post-emergence, 336 h, SETFA: giant foxtail (Setaria faberi), application rate 140 g ai/ha, read-out: Visual Growth Reduction (%) 14 Days After Application, SETFA
Text: Post-emergent Test II: Seeds or nutlets of the desired test plant species were planted in Sun Gro Metro-Mix® 360 planting mixture, which typically has a pH of 6.0 to 6.8 and an organic matter content of about 30 percent, in plastic pots with a surface area of 64 square centimeters. When required to ensure good germination and healthy plants, a fungicide treatment and/or other chemical or physical treatment was applied. […]
experimental endpoint: pest or weed control at 140 g/ha

Sample answers from the record:
QUERY: Data request, read-out pest or weed control at 140 g/ha, for COC(=O)c1nc(-c2ccc(C#N)cc2)c(Cl)c(N)c1Cl
RESULT: 0 to 29%

QUERY: Data request, read-out pest or weed control at 140 g/ha, for COC(=O)c1nc(-c2cc(F)c(C#N)cc2F)c(F)c(N)c1Cl
RESULT: 0 to 29%

Further cases:
QUERY: Data request, read-out pest or weed control at 140 g/ha, for Nc1cc(-c2cc(F)c(I)cc2F)nc(C(=O)O)c1Cl
RESULT: 95 to 100%

QUERY: Data request, read-out pest or weed control at 140 g/ha, for Nc1c(F)c(-c2cc(F)c(OC(F)F)cc2F)nc(C(=O)O)c1Cl
RESULT: 0 to 29%

QUERY: Data request, read-out pest or weed control at 140 g/ha, for Nc1cc(-c2ccc(I)cc2F)nc(C(=O)O)c1Cl
RESULT: 95 to 100%

====

List of pest or weed control at 70 g/ha values.
Tested on: Key Grass and Sedge Weeds as well as Grass Crops
Assay: Post-emergent Test II herbicidal activity (Table 6)
Format: in vivo
Conditions: post-emergence, 336 h, CYPES: yellow nutsedge (Cyperus esculentus), 70 g ai/ha, read-out: Visual Growth Reduction (%) 14 Days After Application, CYPES

Sample answers from the record:
QUERY: Data request, read-out pest or weed control at 70 g/ha, for C#Cc1ccc(-c2nc(C(=O)O)c(Cl)c(N)c2F)c(F)c1F
RESULT: 0 to 29%

QUERY: Data request, read-out pest or weed control at 70 g/ha, for N#Cc1ccc(-c2nc(C(=O)O)c(Cl)c(N)c2F)cc1
RESULT: 60 to 74%

QUERY: Data request, read-out pest or weed control at 70 g/ha, for Cc1ccc(-c2nc(C(=O)O)c(Cl)c(N)c2F)cc1F
RESULT: 0 to 29%

QUERY: Data request, read-out pest or weed control at 70 g/ha, for COC(=O)c1nc(-c2ccc(C(F)F)c(F)c2)cc(N)c1Cl
RESULT: 85 to 94%

Kindly review the next compound as well.
QUERY: Data request, read-out pest or weed control at 70 g/ha, for COC(=O)c1nc(-c2ccc(I)cc2)nc(N)c1OC
RESULT: 95 to 100%
